Target: Lipoxygenase (type I-B) (Glycine max, UniProt P08170)
Sequence (P08170 1-839): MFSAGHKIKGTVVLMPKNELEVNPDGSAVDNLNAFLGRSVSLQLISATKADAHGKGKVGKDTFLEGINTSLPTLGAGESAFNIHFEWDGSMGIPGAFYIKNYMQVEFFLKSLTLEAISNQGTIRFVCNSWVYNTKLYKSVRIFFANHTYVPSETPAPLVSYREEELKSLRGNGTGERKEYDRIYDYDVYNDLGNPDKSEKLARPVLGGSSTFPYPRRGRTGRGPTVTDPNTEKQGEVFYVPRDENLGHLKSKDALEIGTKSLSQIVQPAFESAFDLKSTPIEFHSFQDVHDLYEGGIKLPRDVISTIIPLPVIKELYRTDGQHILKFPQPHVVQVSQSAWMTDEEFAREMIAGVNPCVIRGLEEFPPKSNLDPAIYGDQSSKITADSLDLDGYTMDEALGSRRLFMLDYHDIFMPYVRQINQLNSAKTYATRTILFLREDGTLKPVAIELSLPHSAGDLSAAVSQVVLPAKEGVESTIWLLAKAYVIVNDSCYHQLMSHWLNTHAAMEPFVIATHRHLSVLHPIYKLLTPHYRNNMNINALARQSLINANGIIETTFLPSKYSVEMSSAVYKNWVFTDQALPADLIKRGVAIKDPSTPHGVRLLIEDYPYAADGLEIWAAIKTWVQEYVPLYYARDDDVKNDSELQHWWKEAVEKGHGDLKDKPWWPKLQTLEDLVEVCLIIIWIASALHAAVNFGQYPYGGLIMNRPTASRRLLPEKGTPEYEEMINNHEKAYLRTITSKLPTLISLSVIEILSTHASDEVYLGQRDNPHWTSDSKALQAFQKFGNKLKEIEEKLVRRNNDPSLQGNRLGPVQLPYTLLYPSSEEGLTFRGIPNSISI
readoutLabel: pIC50
On this scale, pIC50 is minus log10 of a concentration expressed in M (mol/L).

smilesEntry | studySystem | pIC50
C[C@H]1C(=O)CC[C@@H]2[C@]1(C)CC[C@H]1[C@@]2(C)CC[C@@]2(C)[C@@H]3CC(C)(C)CC[C@]3(C)CC[C@]12C | Lipoxygenase (type I-B) (Glycine max, UniProt P08170) | 4.24

Pending compound:
# input Would you mind telling me what pIC50 value was observed for `CC1(C)C[C@@H](O)[C@]2(C)CC[C@]3(C)C(=CC[C@@H]4[C@@]5(C)CC[C@H](O)C(C)(C)[C@@H]5CC[C@]43C)[C@@H]2C1` ?
# output 4.27
